Test system Ich-2 (Caspase-4) (Homo sapiens), pIC50 listed for each of the molecules.
pIC50: −log10 of the molar value.
TEST_READOUT: pIC50

molecule="O=CC(CC(=O)O)NS(=O)(=O)c1ccccc1OCc1ccccc1 (stereo not drawn)" test_readout=pIC50 reported_value=4.01

a = O=CC(CC(=O)O)NS(=O)(=O)c1ccccc1-c1cccc2ccccc12 (stereo not drawn)
b = Cc1cccc(Oc2ccccc2S(=O)(=O)NC(C=O)CC(=O)O)c1C (stereo not drawn)
## Task // max by pIC50 over [ a , b ] Give the label of your selection.
## Result a
(a: 4.11, b: 3.91)
